Source listed as patent US8642801B2.

target: IAPP (Homo sapiens, UniProt P10997); construct: which is a 37 amino acid peptide, derived from a larger precursor peptide, called pro-IAPP; experiment: MS (electrospray mass spectrometry) binding assay for IAPP; conditions: Table 3C; 20 μM Aβ peptide, 100 μM compound (so in the source)
Sequence (P10997 34-70 limits assumed): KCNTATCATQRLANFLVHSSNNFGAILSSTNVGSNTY
Reported Metric: MS binding IAPP

{"columns": ["Compound", "Result"],
 "data": [
  ["CCCC(CO)NCCC(C)S(=O)(=O)O (racemic)", "++ (40-74% binding=(++))"],
  ["CCNCCCCS(=O)(=O)O [LE, 4-(ethylamino)-1-butanesulfonic acid]", "++ (40-74% binding=(++))"],
  ["CCOc1ccccc1CNCCCS(=O)(=O)O", "++ (40-74% binding=(++))"],
  ["CC(CCN1CCCCC1)S(=O)(=O)O (centres unmarked)", "+ (20-39% binding=(+))"],
  ["O=S(=O)(O)CCCCNC1CCCc2ccccc21 (centres unmarked)", "++ (40-74% binding=(++))"]
]}

Continue with the next compound.
IN: Which MS binding IAPP is listed for O=S(=O)([O-])CCC[N+]12CCC(CC1)CC2 ?
OUT: + (20-39% binding=(+))

----------
Molecular target: Aβ1-40 (Homo sapiens)
Construct: most is normally secreted as a 40 (“Aβ1-40”) or 42 (“Aβ1-42”) amino acid peptide
Assay: MS (electrospray mass spectrometry) binding assay for Aβ40
Conditions: Table 3B; 30 μM Aβ peptide, 150 μM compound
Excerpt: The ability of a therapeutic compound of the invention to inhibit an interaction between an amyloidogenic protein and a glycoprotein or proteoglycan constituent of a basement membrane can be assessed by an in vitro binding assay, such as that described in U.S. Pat. No. 5,164,295, the contents of which are hereby incorporated by reference. […] The protocol can readily be modified to adjust the sensitivity of the data, e.g., by adjusting the amount of protein and/or compound employed. […]

{"columns": ["Compound", "MS binding Aβ1-40"],
 "data": [
  ["CC(CCNC12CC3CC(CC(C3)C1)C2)S(=O)(=O)O (centres unmarked)", "++ (40-59% binding=(++))"],
  ["C[C@@H](NCCCS(=O)(=O)O)c1ccccc1", "++ (40-59% binding=(++))"],
  ["CC(CCN)S(=O)(=O)O (centres unmarked)", "++ (40-59% binding=(++))"]
]}

----------
target: Aβ1-40 (Homo sapiens, UniProt P05067); construct: most is normally secreted as a 40 (“Aβ1-40”) or 42 (“Aβ1-42”) amino acid peptide; experiment: MS (electrospray mass spectrometry) binding assay for Aβ40; conditions: Table 3D; 40 μM Aβ peptide, 400 μM compound
Sequence (P05067 672-711 limits assumed): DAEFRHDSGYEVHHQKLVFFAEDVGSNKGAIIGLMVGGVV
Reported Metric: MS binding Aβ1-40

{"columns": ["Molecule", "MS binding Aβ1-40"],
 "data": [
  ["O=S(=O)(O)CCCNc1ccc(F)cc1", "++ (40-74% binding=(++))"],
  ["O=S(=O)(O)CCCn1cccc1", "++ (40-74% binding=(++))"],
  ["O=S(=O)(O)CCCn1ccnc1", "++ (40-74% binding=(++))"],
  ["Nc1ccc(NCCCS(=O)(=O)O)cc1", "+ (20-39% binding=(+))"],
  ["COc1ccc(NCCCS(=O)(=O)O)cc1", "++ (40-74% binding=(++))"]
]}

Next, consider the following molecule.
IN: What value of MS binding Aβ1-40 on Aβ1-40 (Homo sapiens, UniProt P05067) does O=S(=O)(O)CCCNC1CN2CCC1CC2 (stereo not drawn) have?
OUT: + (20-39% binding=(+))
